Each recorded value in this set is attributed to patent US9346809B2.

Measured EC50 by item
Biological target: TYK2 (aa 871-1187, catalytic domain, GST-tag) (Homo sapiens)
Construct: JAK1 (aa 850-1154) and TYK2 (aa 871-1187) are expressed with an N-terminally fused GST-tag; GST (N); purchased Carna Biosciences, Inc; host or cells: baculovirus expression system
Assay: JAK kinase assay (HTRF, phosphorylation of TK substrate-biotin), TYK2
Assay type: biochemical
Conditions: ATP at Km (13 μM); read-out: TYK2 kinase inhibitory activity (EC50 indicator)

// worked examples, EC50 included
>  <smi>
CN(C)S(=O)(=O)c1ccc(C(=O)N2CCN(c3ncnc4[nH]ccc34)CC23CC3)cc1

>  <EC50>
100 to 500 nM

$$$$
>  <smi>
N#CCCC(=O)N1[C@@H]2CC[C@@H]1CN(c1ncnc3[nH]ccc13)C2

>  <EC50>
100 to 500 nM

$$$$
>  <smi>
O=C(Cc1ccncc1)N1CCN(c2ncnc3[nH]ccc23)CC12CC2

>  <EC50>
> 500 nM

$$$$
>  <smi>
Cc1ccsc1C(=O)N1CCN(c2ncnc3[nH]ccc23)CC12CC2

>  <EC50>
100 to 500 nM

$$$$
>  <smi>
N#CC1(C(=O)N2CCN(c3ccnc4[nH]ccc34)CC23CC3)CC1

>  <EC50>
> 500 nM

$$$$

Q) Look up EC50 for this compound: `O=C(c1cc2ccccc2s1)N1CCN(c2ncnc3[nH]ccc23)CC12CCCC2`
A) > 500 nM

Q) Look up EC50 for this compound: `O=C(c1ccc(-c2ccccc2)cc1)N1CCN(c2ncnc3[nH]ccc23)CC12CC2`
A) > 500 nM

Q) Look up EC50 for this compound: `N#Cc1cccc(CS(=O)(=O)N2[C@@H]3CC[C@H]2CN(c2ncnc4[nH]ccc24)C3)c1`
A) > 500 nM

----------
Biological target: JAK2 (catalytic domain, His-tag) (Homo sapiens, UniProt O60674)
Construct: All four purified enzymes contain only the catalytic domain; His (N); purchased Carna Biosciences, Inc; host or cells: baculovirus expression system
Sequence (O60674 849-1124 limits assumed): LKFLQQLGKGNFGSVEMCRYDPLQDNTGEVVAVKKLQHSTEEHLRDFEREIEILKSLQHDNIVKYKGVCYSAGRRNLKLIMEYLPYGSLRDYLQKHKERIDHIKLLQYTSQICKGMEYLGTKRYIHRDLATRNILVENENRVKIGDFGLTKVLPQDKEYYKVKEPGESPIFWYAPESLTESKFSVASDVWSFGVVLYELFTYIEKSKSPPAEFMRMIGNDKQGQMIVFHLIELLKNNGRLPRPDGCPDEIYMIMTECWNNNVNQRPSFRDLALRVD
Assay: JAK kinase assay (HTRF, phosphorylation of TK substrate-biotin), JAK2
Format: biochemical
Conditions: HTRF assay, ATP at Km (4 μM); read-out: JAK2 kinase inhibitory activity (EC50 indicator)
measured-metric: EC50

>  <compound>
N#CC1(C(=O)N2[C@@H]3CC[C@@H]2CN(c2ncnc4[nH]ccc24)C3)CCOCC1 [Example 248]

>  <measured-metric>
EC50

>  <reported>
< 100 nM

$$$$

Q) Look up EC50 for this compound: N#Cc1ccccc1CC(=O)N1CCN(c2ccnc3[nH]ccc23)CC12CC2 [Example 237]
A) 100 to 500 nM

Q) Look up EC50 for this compound: N#Cc1ccc(CC(=O)N2CCN(c3nc(N)nc4[nH]ccc34)CC23CC3)cc1 [Example 312]
A) < 100 nM

Q) Look up EC50 for this compound: COc1cnc2[nH]ccc2c1N1CCN(C(=O)Cc2cccc(C#N)c2)C2(CC2)C1 [Example 294]
A) 100 to 500 nM

Q) Look up EC50 for this compound: NS(=O)(=O)c1ccc(C(=O)N2CCN(c3ncnc4[nH]ccc34)CC23CC3)s1 [Example 405]
A) < 100 nM

----------
Measured EC50 by item
Target: JAK2 (catalytic domain, His-tag) (Homo sapiens)
Construct: All four purified enzymes contain only the catalytic domain; His (N); purchased Carna Biosciences, Inc; host or cells: baculovirus expression system
Experiment: JAK kinase assay (HTRF, phosphorylation of TK substrate-biotin), JAK2
Type: biochemical
Details: HTRF assay, ATP at Km (4 μM); read-out: JAK2 kinase inhibitory activity (EC50 indicator)

Q) Look up EC50 for this compound: `COc1cc(S(N)(=O)=O)ccc1C(=O)N1CCN(c2ncnc3[nH]ccc23)CC12CC2`
A) < 100 nM

Q) Look up EC50 for this compound: `NS(=O)(=O)c1ccc(C(=O)N2CCN(c3ncnc4[nH]ccc34)CC23CC3)cc1`
A) < 100 nM

----------
Molecular target: JAK3 (catalytic domain, His-tag) (Homo sapiens)
Construct: All four purified enzymes contain only the catalytic domain; His (N); purchased Carna Biosciences, Inc; host or cells: baculovirus expression system
Sequence (P52333 822-1111 limits assumed): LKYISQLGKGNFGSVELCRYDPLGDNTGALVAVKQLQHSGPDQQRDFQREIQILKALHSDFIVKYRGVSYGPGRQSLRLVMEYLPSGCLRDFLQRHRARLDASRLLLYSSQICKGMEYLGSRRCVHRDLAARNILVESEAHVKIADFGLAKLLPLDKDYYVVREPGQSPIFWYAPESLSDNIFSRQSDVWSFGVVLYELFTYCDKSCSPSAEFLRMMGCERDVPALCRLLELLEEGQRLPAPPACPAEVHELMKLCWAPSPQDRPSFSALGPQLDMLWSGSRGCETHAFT
Assay: JAK kinase assay (HTRF, phosphorylation of TK substrate-biotin), JAK3
Assay type: biochemical
Conditions: HTRF assay, ATP at Km (2 μM); read-out: JAK3 kinase inhibitory activity (EC50 indicator)
pEC50: −log10 of the molar value.
Measured pEC50 by item

// worked examples, pEC50 included
>  <compound>
N#CCc1cccc(CC(=O)N2CCN(c3ncnc4[nH]cc(Cl)c34)CC23CC3)c1 [Example 318]

>  <pEC50>
< 6.30

$$$$
>  <compound>
N#Cc1ccc(C(=O)N2[C@@H]3CC[C@@H]2CN(c2ncnc4[nH]ccc24)C3)cc1F [Example 350]

>  <pEC50>
> 7.00

$$$$
>  <compound>
NS(=O)(=O)c1ccc(C(=O)N2CCN(c3ncnc4[nH]ccc34)CC23CC3)s1 [Example 405]

>  <pEC50>
> 7.00

$$$$

Moving on to the next compound.
Q) Look up pEC50 for this compound: N#CC1(C(=O)N2[C@@H]3CC[C@@H]2CN(c2ncnc4[nH]ccc24)C3)CCOCC1 [Example 248]
A) 6.30 to 7.00

----------
Biological target: TYK2 (aa 871-1187, catalytic domain, GST-tag) (Homo sapiens, UniProt P29597)
Construct: JAK1 (aa 850-1154) and TYK2 (aa 871-1187) are expressed with an N-terminally fused GST-tag; GST (N); purchased Carna Biosciences, Inc; host or cells: baculovirus expression system
Sequence (P29597 871-1187): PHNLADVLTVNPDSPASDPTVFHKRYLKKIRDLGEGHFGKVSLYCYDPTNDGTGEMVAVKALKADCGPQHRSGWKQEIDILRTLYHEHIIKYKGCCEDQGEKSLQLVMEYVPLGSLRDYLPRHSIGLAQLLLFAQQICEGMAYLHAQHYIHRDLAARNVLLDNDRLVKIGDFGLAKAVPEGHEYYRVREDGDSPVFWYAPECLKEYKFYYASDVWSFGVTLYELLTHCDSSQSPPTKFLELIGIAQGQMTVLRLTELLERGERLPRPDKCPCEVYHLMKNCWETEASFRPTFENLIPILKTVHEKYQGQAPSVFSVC
Test: JAK kinase assay (HTRF, phosphorylation of TK substrate-biotin), TYK2
Type: biochemical
Settings: ATP at Km (13 μM); read-out: TYK2 kinase inhibitory activity (EC50 indicator)
pEC50: −log10 of the molar value.
measured-metric: pEC50

// worked examples, pEC50 included
>  <compound>
O=C(c1cnc2ccccc2c1)N1CCN(c2ncnc3[nH]ccc23)CC12CC2

>  <reported>
6.30 to 7.00

$$$$
>  <compound>
N#CC1(C(=O)N2CCN(c3ncnc4[nH]ccc34)CC23CC3)CCCC1

>  <reported>
< 6.30

$$$$

Moving on to the next compound.
Q) Look up pEC50 for this compound: N#CC1CCN(C(=O)C2(C(=O)N3CCN(c4ncnc5[nH]ccc45)CC34CC4)CC2)C1 (stereo not drawn)
A) < 6.30

----------
Molecular target: JAK2 (catalytic domain, His-tag) (Homo sapiens)
Construct: All four purified enzymes contain only the catalytic domain; His (N); purchased Carna Biosciences, Inc; host or cells: baculovirus expression system
Assay: JAK kinase assay (HTRF, phosphorylation of TK substrate-biotin), JAK2
Assay type: biochemical
Conditions: ATP at Km (4 μM); read-out: JAK2 kinase inhibitory activity (EC50 indicator)
measured-metric: EC50

>  <molecule>
Cc1nccnc1C(=O)N1[C@@H]2CC[C@H]1CN(c1ncnc3[nH]ccc13)C2

>  <reported>
< 100 nM

$$$$

Q) Look up EC50 for this molecule: `N#CCOc1cccc(C(=O)N2CCN(c3ncnc4[nH]ccc34)CC23CC3)c1`
A) < 100 nM

Q) Look up EC50 for this molecule: O=C1CC(C(=O)N2CCN(c3ncnc4[nH]ccc34)CC23CC3)c2ccccc21 (centres unmarked)
A) < 100 nM

Q) Look up EC50 for this molecule: `N#CC1(C(=O)N2CCN(c3ccnc4[nH]ccc34)CC23CC3)CC1`
A) 100 to 500 nM

Q) Look up EC50 for this molecule: `Cc1c[nH]c2ncnc(N3CCN(C(=O)c4cccc(C#N)c4)C4(CC4)C3)c12`
A) > 500 nM

Q) Look up EC50 for this molecule: O=C1c2ccccc2CC1C(=O)N1C2CCC1CN(c1ncnc3[nH]ccc13)C2 (centres unmarked)
A) 100 to 500 nM

----------
Target: JAK1 (aa 850-1154, catalytic domain, GST-tag) (Homo sapiens)
Construct: JAK1 (aa 850-1154) and TYK2 (aa 871-1187) are expressed with an N-terminally fused GST-tag; GST (N); purchased Carna Biosciences, Inc; host or cells: baculovirus expression system
Sequence (P23458 850-1154): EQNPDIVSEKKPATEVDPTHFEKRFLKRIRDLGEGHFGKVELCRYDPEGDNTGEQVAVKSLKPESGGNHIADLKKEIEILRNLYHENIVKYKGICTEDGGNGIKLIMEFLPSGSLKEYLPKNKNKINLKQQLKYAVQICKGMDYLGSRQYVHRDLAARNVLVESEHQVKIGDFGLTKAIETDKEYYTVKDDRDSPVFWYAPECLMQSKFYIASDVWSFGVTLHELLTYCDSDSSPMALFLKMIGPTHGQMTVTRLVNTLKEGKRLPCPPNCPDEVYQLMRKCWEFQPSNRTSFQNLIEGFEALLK
Assay: JAK kinase assay (HTRF, phosphorylation of TK substrate-biotin), JAK1
Format: biochemical
Conditions: HTRF assay, ATP at Km (7 μM); read-out: JAK1 kinase inhibitory activity (EC50)
pEC50: −log10 of the molar value.
measured-metric: pEC50

// worked examples, pEC50 included
>  <compound>
O=C(CNc1ccccc1)N1CCN(c2ncnc3[nH]ccc23)CC12CC2 [Example 451]

>  <measured-metric>
pEC50

>  <reported>
> 7.00

$$$$
>  <compound>
Cc1ccc(S(=O)(=O)N2CCN(c3ncnc4[nH]ccc34)CC23CC3)cc1 [Example 439]

>  <measured-metric>
pEC50

>  <reported>
> 7.00

$$$$
>  <compound>
COCC(=O)N1CCN(c2ncnc3[nH]ccc23)CC12CC2 [Example 443]

>  <measured-metric>
pEC50

>  <reported>
> 7.00

$$$$
>  <compound>
CC(C)(C)[S+]([O-])N1CCN(c2ncnc3[nH]ccc23)CC12CC2 (stereo not drawn) [Example 449]

>  <measured-metric>
pEC50

>  <reported>
< 6.30

$$$$
>  <compound>
O=C(NCCc1ccccc1)N1CCN(c2ncnc3[nH]ccc23)CC12CC2 [Example 445]

>  <measured-metric>
pEC50

>  <reported>
> 7.00

$$$$

Moving on to the next compound.
Q) Look up pEC50 for this compound: NS(=O)(=O)c1ccc(OCCC(=O)N2CCN(c3ncnc4[nH]ccc34)CC23CC3)cc1 [Example 452]
A) > 7.00
